TEST TARGET: T1, AFP158/HLA-A*02:01 complex (human)
T1 construct: flowed as analyte in SPR
ASSAY TEXT: SPR, fold vs AS170036 VL1VH1;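 note: crude scFv muteins immobilised on a sensor chip, peptide–MHC complex passed over at several concentrations, binding then buffer-driven dissociation, KD estimated from on- and off-rates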
ATTRIBUTE MEASURED: Affinity increase (fold)
Form entry: value (fold) — number only.

AS170036 VL1VH1-56Y98F108A (scFv, also called 40-AS170036 VL1VH1-56Y98F108A) scFv: QSALTQPRSVSGSPGQSVTISCAGTSSDVGSENYVSWYQQHPGKAPKLMIYQVNKRASGVPDRFSGSKSGNTASLTISGLQAEDEADYYCASYRSSDFNIVFGGGTKLTVLGGGGSGGGGSGGGGSEVQLVESGGGLVQPGGSLRLSCAASGFTFSSYAMSWVRQAPGKGLEWVSTINSGTYSPYYADSVKGRFTISRDNSKNTLYLQMNSLRAEDTAVYYCAKNFFDGSWFLAPPAMDYWGQGTLVTVSSHHHHHH ... 142
AS170036 VL1VH1-57H98I108A (scFv, also called 61-AS170036 VL1VH1-57H98I108A) scFv: QSALTQPRSVSGSPGQSVTISCAGTSSDVGSENYVSWYQQHPGKAPKLMIYQVNKRASGVPDRFSGSKSGNTASLTISGLQAEDEADYYCASYRSSDINIVFGGGTKLTVLGGGGSGGGGSGGGGSEVQLVESGGGLVQPGGSLRLSCAASGFTFSSYAMSWVRQAPGKGLEWVSTINSGTGHPYYADSVKGRFTISRDNSKNTLYLQMNSLRAEDTAVYYCAKNFFDGSWFLAPPAMDYWGQGTLVTVSSHHHHHH ... 67.6

### Prompt Answer with the recorded Affinity increase for the binder listed here: AS170036 VL1VH1-56Y98Q108S (scFv, also called 48-AS170036 VL1VH1-56Y98Q108S) scFv: QSALTQPRSVSGSPGQSVTISCAGTSSDVGSENYVSWYQQHPGKAPKLMIYQVNKRASGVPDRFSGSKSGNTASLTISGLQAEDEADYYCASYRSSDQNIVFGGGTKLTVLGGGGSGGGGSGGGGSEVQLVESGGGLVQPGGSLRLSCAASGFTFSSYAMSWVRQAPGKGLEWVSTINSGTYSPYYADSVKGRFTISRDNSKNTLYLQMNSLRAEDTAVYYCAKNFFDGSWFLSPPAMDYWGQGTLVTVSSHHHHHH
### Response 67.4

Data provenance is patent US20240279318A1.
